- Tested on: PXR homodimer (NR concentration 270 nM)
- run description: PBM binding z-score (relative to random genomic background probes); higher = stronger binding; sequences stand for … in GC…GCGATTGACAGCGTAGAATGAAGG
If the reported PBM binding z-score equals or exceeds 0.4, assign label 1. If not, assign label 0.

| sequence entry | group label |
| --- | --- |
| GCTGCTAGGTCAACTCATGGTCAGCTAAAGCTCG | label 0 |
| ATATCTAGGTTATCGGGTCATTCAGTTTGCGCAT | label 1 |
| GCGACAGGGGCAAAGCAGGTTACCATAAGGTTGG | label 0 |
| GCGACTGGGGCAAAGCAGGTTACCCTAAGGTTGG | label 0 |

Moving on to the next sequence.
Input line: Quick check: does CGAACGAGGGCATGAGTTGATAGAAAATGCCGAT have PBM binding z-score greater than or equal to 0.4?
Output line: label 1

----------
- Tested on: PPARg:RXRa IVT, anti-PPARg (NR concentration 270 nM, RXRa partner concentration 90 nM)
- run description: PBM binding z-score (relative to random genomic background probes); higher = stronger binding; sequences stand for … in GC…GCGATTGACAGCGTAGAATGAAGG
# PBM binding z-score binned as b0: < 1; b1: ≥ 1 and < 3; b2: ≥ 3

Reference set, count: 3
| sequence entry | group label |
| --- | --- |
| AGAACGAGGGCAATGAGGTGATAGCACGGGTGGC | b2 |
| CCGAGCAGGTTATGGGGCATTCAGGCAACGGTGA | b1 |
| ACTATTAGTTGACTTAGGGCAACCGGTACGACGC | b0 |

Input line: For CCGACTGGGGCATAAGGTTACCCTAAGCCAGCCC , which PBM binding z-score bin applies?
Output line: b1

Input line: For CCTCCAAGGTCAGCAGGTCAGTGAAAGCGACGTG , which PBM binding z-score bin applies?
Output line: b2

Input line: For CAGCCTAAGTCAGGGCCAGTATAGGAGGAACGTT , which PBM binding z-score bin applies?
Output line: b0

Input line: For ATCTCTAGGTAAAGATAGTTCAGTTAATGCAAAT , which PBM binding z-score bin applies?
Output line: b1

Input line: For TCTTGTATATCAATAGAGGTTAAGAAAGTGCGCT , which PBM binding z-score bin applies?
Output line: b1

Input line: For TCATATAGGTAATACAGGTGAAACTCGGCATCTA , which PBM binding z-score bin applies?
Output line: b2

Input line: For TCTGCTAGGTCAACGATGTTCAGCTAATCTGCTA , which PBM binding z-score bin applies?
Output line: b2

Input line: For TAGCCTAGGTCAGCTCGGGCCAGTATACGCTATA , which PBM binding z-score bin applies?
Output line: b1

Input line: For CAAACTCGGTCAAAGGTCAAAGTCGAGCCAACCA , which PBM binding z-score bin applies?
Output line: b2

----------
Give PBM binding z-score for every item shown.
- Tested on: RARa homodimer (NR concentration 270 nM)
- run description: PBM binding z-score (relative to random genomic background probes); higher = stronger binding; sequences stand for … in GC…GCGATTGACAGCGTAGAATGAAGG

Known PBM binding z-score results, listed for orientation:
| sequence entry | PBM binding z-score |
| --- | --- |
| TCAGACAGGTGACGGTAACTCAGGTACGCAGTCG | 0.103 |
| ATCTCTAAGTAACCAAGTTCAGTGAATGCCGAAC | 0.561 |
| TTACCAAGGTGAAAGGTCGTTGGTGCACGCCTTG | -0.639 |
| TAGCCTAGGTCATGCGGGCCAGTTTAGTGTCGGC | -0.83 |
| CCTACTTGGTCAAGGTCACACACGCTATAGGTAC | 2.21 |

Dear colleague, could you please provide PBM binding z-score for the sequences listed below?
1. GCTTGTATATCAAGGTTAAGAAAGACTAAGCTAA
2. TAGCATAGGTCATTCAGGGGCCAGTATAGAAAGC
3. CCTAGCAGCCCAGGGTCACTCAAGCATTTCGCTT
4. AGTCAAAGTGCACTAGGTAACGTAAGATTCAGCT

Output line:
0.663
1.25
0.00809
-0.372

Dear colleague, could you please provide PBM binding z-score for the sequences listed below?
1. ACTGGCAGGCCAAGGGTCACTCAAGATTAGTCCG
2. CGTCAAAGTTCAACTAAGGTAACGTCAAGCACGC
3. TAGCCTAGGTCATGGGCCAATATACCACGCGAAC
4. ATATGTAGGTTATCGGGTCATTGAGTTTGCGCAT
5. AGTCAAAGTTCACTAGGTAACGTAAGATTCAGCT
6. CGCACTAGGTCAAGGACAGTGAATCTCCGCACGC
7. CGAACGAGGGCATGAGTTGATAGCGAATGCCGAT

Output line:
1. -0.0207
2. 1.85
3. 0.353
4. 1.41
5. 0.986
6. 0.00773
7. -0.349
